// MV-4-11 cells GI50 records
Write the value in nM as a bare number.

COc1ncccc1-c1n[nH]c2c1C(=O)N(c1cc(C)c3nnc(C)n3c1)C2c1ccc(Cl)cc1 (stereo not shown) [Example 10] | 34.5
Cc1cc(N2C(=O)c3c(C4CC4)nn(C)c3C2c2ccc(Cl)cc2)cc2c1nnn2C (racemic) [Example 8] | 4.71
COCCn1nc(C2CC2)c2c1C(c1ccc(Cl)cc1)N(c1cc(C)c3nnc(C)n3c1)C2=O (racemic) [Example 4] | 9.36

Task item: Give measured GI50 for CCOC(=O)Nc1cc(N2C(=O)c3c(C4CC4)nn(C)c3C2c2ccc(Cl)cc2)cn2c(C)nnc12 (stereo not shown) [Example 29] (MV-4-11 cells).
Reply: 1.13

Task item: Give measured GI50 for Cc1cc(N2C(=O)c3c(C4CC4)nn(C)c3C2c2ccc(Cl)cc2)cn2c(CF)nnc12 (racemic) [Example 16] (MV-4-11 cells).
Reply: 6.07

Task item: Give measured GI50 for Cc1nnc2c(NC(=O)OC(C)(C)C)cc(N3C(=O)c4c(C5CC5)nn(C)c4C3c3ccc(Cl)cc3)cn12 (stereo not shown) [Example 27] (MV-4-11 cells).
Reply: 11.1

Task item: Give measured GI50 for Cc1cc(N2C(=O)c3c(C4CC4)nn(C[C@@H](O)C(F)(F)F)c3[C@H]2c2ccc(Cl)cc2)cn2c(C)nnc12 [Example 19] (MV-4-11 cells).
Reply: 5.23

---

Biological target: CREBBP bromodomain (His-CREBBP(1081-1197)) (Homo sapiens (Human), UniProt Q92793)
Sequence (Q92793 1081-1197): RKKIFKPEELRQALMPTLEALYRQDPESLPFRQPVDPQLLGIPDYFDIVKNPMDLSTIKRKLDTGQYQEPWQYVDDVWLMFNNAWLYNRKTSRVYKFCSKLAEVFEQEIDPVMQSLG
Experiment: AlphaScreen in-vitro binding assay for CREBBP
Details: AlphaScreen, acetyl-histone H4 peptide; read-out: CREBBP IC50
pIC50: −log10 of the molar value.
Note to self: values exactly at 5 are satisfied. So pIC50 at or above 5 is satisfied, below is not satisfied.

Cc1cc(N2C(=O)c3c(C4CC4)nn(C)c3C2c2ccc(Cl)cc2)cc2c1nnn2C (racemic) | satisfied
Cc1cc(N2C(=O)c3c(C4CC4)nn(-c4ccnn4C)c3C2c2ccc(Cl)cc2)nn2c(C)nnc12 (stereo not shown) | not satisfied
Cc1nnc2c(N)cc(N3C(=O)c4c(C5CC5)nn(C)c4C3c3ccc(Cl)cc3)cn12 (stereo not shown) | satisfied
COc1ncccc1-c1nn(C)c2c1C(=O)N(c1cc(C)c3nnc(C)n3c1)[C@@H]2c1ccc(Cl)cc1 | satisfied
COc1cc(N2C(=O)c3c(C4CC4)nn(C)c3C2c2ccc(Cl)cc2)cn2c(C(F)F)nnc12 (stereo not shown) | not satisfied
Cc1cc(N2C(=O)c3c(C4CC4)nn(C)c3[C@H]2c2ccc(Cl)cc2)cn2c(C)nnc12 | satisfied
COCCn1nc(C2CC2)c2c1[C@@H](c1ccc(Cl)cc1)N(c1cc(C)c3nnc(C)n3c1)C2=O | satisfied
Cc1cc(N2C(=O)c3c(C4CC4)nn(C)c3[C@H]2c2ccc(Cl)cc2)nn2c(C)nnc12 | not satisfied

Task item: Evaluate Cc1cc(N2C(=O)c3c(C4CC4)nn(C)c3C2c2ccc(Cl)cc2)cn2c(CF)nnc12 (racemic) : pIC50 at minimum 5?
Reply: not satisfied

Task item: Evaluate COCCn1nc(C2CC2)c2c1C(c1ccc(Cl)cc1)N(c1cc(C)c3nnc(CF)n3c1)C2=O (stereo not shown) : pIC50 at minimum 5?
Reply: not satisfied

Task item: Evaluate `COc1cc(N2C(=O)c3c(C4CC4)nn(C)c3[C@H]2c2ccc(Cl)cc2)cn2c(C)nnc12` : pIC50 at minimum 5?
Reply: not satisfied

Task item: Evaluate `Cc1cc(N2C(=O)c3c(C4CC4)nn(C)c3[C@H]2c2ccc(Cl)cc2)cn2c(C(F)F)nnc12` : pIC50 at minimum 5?
Reply: not satisfied

Task item: Evaluate Cc1cc(N2C(=O)c3c(C4CC4)nn(C)c3C2c2ccc(Cl)cc2)cn2c(C(F)F)nnc12 (racemic) : pIC50 at minimum 5?
Reply: not satisfied

Task item: Evaluate COc1cc(N2C(=O)c3c(C4CC4)nn(C)c3C2c2ccc(Cl)cc2)cc2c1nnn2C (stereo not shown) : pIC50 at minimum 5?
Reply: not satisfied

Task item: Evaluate `Cc1cc(N2C(=O)c3c(C4CC4)nn(C)c3[C@H]2c2ccc(Cl)cc2)cc2c1nnn2C` : pIC50 at minimum 5?
Reply: satisfied

Task item: Evaluate Cc1cc(N2C(=O)c3c(C4CC4)nn(-c4ccnn4C)c3C2c2ccc(Cl)cc2)cc2c1nnn2C (stereo not shown) : pIC50 at minimum 5?
Reply: satisfied

Task item: Evaluate COc1cc(N2C(=O)c3c(C4CC4)nn(C)c3C2c2ccc(Cl)cc2)cn2c(C)nnc12 (racemic) : pIC50 at minimum 5?
Reply: not satisfied

Task item: Evaluate `COc1ncccc1-c1n[nH]c2c1C(=O)N(c1cc(C)c3nnc(C)n3c1)[C@@H]2c1ccc(Cl)cc1` : pIC50 at minimum 5?
Reply: not satisfied
